Biological target: T1, human RANK-L (human, UniProt O14788 140-317, limits assumed)
T1 construct: Soluble protein, used coated, biotinylated or labelled in ELISA, AlphaScreen, FMAT and Biacore; also called hRANK-L; soluble human RANK-L
T1 sequence (looked up): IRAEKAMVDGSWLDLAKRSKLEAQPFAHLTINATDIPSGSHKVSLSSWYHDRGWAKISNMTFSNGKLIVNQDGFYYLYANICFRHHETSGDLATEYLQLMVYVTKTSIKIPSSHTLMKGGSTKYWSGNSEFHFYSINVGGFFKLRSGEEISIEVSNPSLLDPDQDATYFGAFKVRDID
Assay: AlphaScreen, biotin-hRANK-L / RANK-huFc beads
MEASURED_ENDPOINT: pIC50
To interpret pIC50, take it as minus log10 of a concentration measured in moles per litre.

// worked examples, pIC50 included
RANKL13hum5 (VHH) VHH: EVQLVESGGGLVQPGGSLRLSCAASGFTFSSYPMGWFRQAPGKGREFVSSITGSGGSTYYADSVKGRFTISRDNAKNTLYLQMNSLRPEDTAVYYCAAYIRPDTYLSRDYRKYDYWGQGTLVTVSS: 9.73
RANKL001p (VHH, PEG (3-Maleimidoproprionamide, 1,3-bis(Methoxy poly (ethylene glycol) modified 2-glycerol), Average MW 40,000) coupled after DTT reduction; the entry ends in GGGC, Bivalent pegylated humanized Nanobody; also called RANKL13hum5-9GS-RANKL13hum5-PEG) EVQLVESGGGLVQPGGSLRLSCAASGFTFSSYPMGWFRQAPGKGREFVSSITGSGGSTYYADSVKGRFTISRDNAKNTLYLQMNSLRPEDTAVYYCAAYIRPDTYLSRDYRKYDYWGQGTLVTVSSGGGGSGGGSEVQLVESGGGLVQPGGSLRLSCAASGFTFSSYPMGWFRQAPGKGREFVSSITGSGGSTYYADSVKGRFTISRDNAKNTLYLQMNSLRPEDTAVYYCAAYIRPDTYLSRDYRKYDYWGQGTLVTVSSGGGC: 10.31
RANKL18hum6 (VHH) VHH: EVQLVESGGGLVQPGGSLRLSCAASGRTFSRSAMGWFRQAPGKGREFVGFITGSGGTTYYADSVKGRFTISRDNAQNPVYLQMNSLRPEDTAVYYCAVYRRTYISSTYSESSEYDYWGQGTLVTVSS: 10.06

Switching to the query record.
Quick one: pIC50 of RANKL003p (VHH, PEG (3-Maleimidoproprionamide, 1,3-bis(Methoxy poly (ethylene glycol) modified 2-glycerol), Average MW 40,000) coupled after DTT reduction; the entry ends in GGGC, Bivalent pegylated humanized Nanobody; also called RANKL3p; RANKL18hum6-30GS-RANKL18hum6-PEG) EVQLVESGGGLVQPGGSLRLSCAASGRTFSRSAMGWFRQAPGKGREFVGFITGSGGTTYYADSVKGRFTISRDNAQNPVYLQMNSLRPEDTAVYYCAVYRRTYISSTYSESSEYDYWGQGTLVTVSSGGGGSGGGGSGGGGSGGGGSGGGGSGGGGSEVQLVESGGGLVQPGGSLRLSCAASGRTFSRSAMGWFRQAPGKGREFVGFITGSGGTTYYADSVKGRFTISRDNAQNPVYLQMNSLRPEDTAVYYCAVYRRTYISSTYSESSEYDYWGQGTLVTVSSGGGC ?
10.60
